molecular target: UniProt:P36894; assay: ELISA; conditions: compound 0.2 µM
Sequence (P36894 whole entry, looked up): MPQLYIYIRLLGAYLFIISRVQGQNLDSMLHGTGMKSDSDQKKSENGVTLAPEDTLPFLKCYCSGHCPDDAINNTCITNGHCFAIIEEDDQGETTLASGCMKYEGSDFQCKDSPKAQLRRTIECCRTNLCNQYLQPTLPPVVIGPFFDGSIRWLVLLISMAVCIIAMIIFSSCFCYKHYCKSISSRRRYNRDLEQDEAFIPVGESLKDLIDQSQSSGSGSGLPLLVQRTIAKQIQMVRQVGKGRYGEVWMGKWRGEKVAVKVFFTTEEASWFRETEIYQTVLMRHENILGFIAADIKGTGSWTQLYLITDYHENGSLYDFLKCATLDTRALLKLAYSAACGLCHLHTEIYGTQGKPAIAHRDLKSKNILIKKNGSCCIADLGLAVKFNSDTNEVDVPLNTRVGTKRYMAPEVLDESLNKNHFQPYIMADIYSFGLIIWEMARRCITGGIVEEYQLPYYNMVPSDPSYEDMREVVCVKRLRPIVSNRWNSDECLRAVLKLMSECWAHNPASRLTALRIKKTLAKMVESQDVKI
Property Measured: inhibition (%)

[
  {
    "Smiles Str": "CNC(=O)c1cc(Oc2ccc(NC(=O)Nc3ccc(Cl)c(C(F)(F)F)c3)cc2)ccn1",
    "U": "%",
    "inhibition": 7
  },
  {
    "Smiles Str": "COc1cc2c(Oc3ccc4[nH]c(C)cc4c3F)ncnc2cc1OCCCN1CCCC1",
    "U": "%",
    "inhibition": -7.9
  }
]

I: Cc1ccc(Nc2nccc(N(C)c3ccc4c(C)n(C)nc4c3)n2)cc1S(N)(=O)=O
II: CCN(CC)CCNC(=O)c1c(C)[nH]c(/C=C2\C(=O)Nc3ccc(F)cc32)c1C
Ask: Please indicate which item has the smaller measured inhibition: I versus II Write the label of whichever entry you select.
Reply: II
